Source of measurements: patent US20250296938A1

Give measured inhibition at 20 µM for each item. Keep answers brief.
biological target: Rho-A (Homo sapiens); assay: Ras GTP binding domain inhibition assay (Cy3-GTP/Cy5-GTP competition); settings: with SOS, read-out: Rho-A + SOS: % inh.
Sequence (P61586 1-190): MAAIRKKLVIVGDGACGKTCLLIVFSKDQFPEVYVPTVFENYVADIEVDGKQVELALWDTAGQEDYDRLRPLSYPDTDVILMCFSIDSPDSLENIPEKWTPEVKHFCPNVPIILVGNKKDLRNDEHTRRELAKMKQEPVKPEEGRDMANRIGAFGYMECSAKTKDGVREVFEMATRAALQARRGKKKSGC

// query I am curious: what inhibition at 20 µM value has been reported for CN(C)CCOCCNc1nc(-c2nccn2C)nc2sc(-c3ccn(C)n3)c(-c3ccccc3)c12 [drawing 1042] ?
// result 51 to 75%

// query # get_value(readout='inhibition at 20 µM', item= COC1CCC(Nc2nc(-c3nccn3C)nc3sc(-c4cccc5[nH]ncc45)c(C)c23)C1 (centres unmarked) [drawing 1030] )
// result 26 to 50%

// query Which inhibition at 20 µM is listed for CCN(CC)C(=O)c1nc(-c2nccn2C)nc(O)c1O [drawing 964] ?
// result 51 to 75%

// query What value of inhibition at 20 µM has been recorded for this entry: COc1ccc(-c2c(-c3ccn(C)n3)sc3nc(-c4nccn4C)nc(N4CCC(OC)C4)c23)cc1 (centres unmarked) [drawing 1003]
// result 26 to 50%

// query Would you kindly share the measured inhibition at 20 µM for CO[C@H]1C[C@@H](Nc2nc(-c3nccn3C)nc3sccc23)C1 [drawing 1038] ?
// result 26 to 50%

// query Using the record for COc1ncccc1-c1sc2nc(-c3nccn3C)nc(N3CCC(OC)C3)c2c1-c1ccccc1 (centres unmarked) [drawing 978] , report its inhibition at 20 µM.
// result 51 to 75%

// query Return reported inhibition at 20 µM; argument: COCCn1ccnc1-c1nc(O)c2scc(-c3ccccn3)c2n1 [drawing 987]
// result 51 to 75%

// query // inhibition at 20 µM lookup, key: COc1ccc(-c2c(-c3cccc(OC)c3F)sc3nc(-c4nccn4C)nc(N4CCC(OC)C4)c23)cc1 (centres unmarked) [drawing 941]
// result 51 to 75%

* * *

tested on: KRas wild type; assay: Ras GTP binding domain inhibition assay (Cy3-GTP/Cy5-GTP competition); parameters: species or system human; conditions: 20 μM; without SOS
Test readout: KRas wild type: % inh.

Recorded KRas wild type: % inh., per entry:
> print(dat)
                                   molecule            test.readout         measured.result
1  COc1ccc(-c2c(-c3cccc(OC)c3F)sc3nc(-c4nccn4C)nc(N4CCC(OC)C4)c23)cc1 (centres unmarked) [drawing 806]  KRas wild type: % inh.   C (51-75% inhibition)
2  COc1ccc(Oc2nc(-c3ccccn3)nc(O)c2OC)cc1 [drawing 815]  KRas wild type: % inh.  D (76-100% inhibition)
3  COCCNc1nc(-c2cn(C)cn2)nc2sc(-c3cccc(OC)c3Cl)c(-c3ccc(OC)cc3)c12 [drawing 797]  KRas wild type: % inh.   C (51-75% inhibition)
4  COCCCNc1nc(-c2nccn2C)nc2sc(-c3ccn(C)n3)c(-c3ccc(OC)cc3)c12 [drawing 870]  KRas wild type: % inh.    A (1-25% inhibition)
5  Cn1ccc(-c2sc3nc(-c4nccn4C)nc(NCC4CCOC4)c3c2-c2ccccc2)n1 (centres unmarked) [drawing 861]  KRas wild type: % inh.       0 (0% inhibition)

// query # lookup: KRas wild type: % inh. of Cn1ccnc1-c1nc(O)c(O)c(C(=O)N2CCCC2)n1 [drawing 828]
// result B (26-50% inhibition)
